- TARGET_OF_ASSAY: SARS2 protease (Severe acute respiratory syndrome coronavirus 2)
- Construct: SARS2 protease was added to a final concentration of 30 nM
- ASSAY_PROCEDURE: SARS-CoV-2 protease inhibition assay (SARS2 FRET protease assay)
- Format: biochemical
- STATED_CONDITIONS: IC50 (μM), SARS2 protease 30 nM, peptide substrate 1.3 μM, 120 minutes at 37° C., compounds 20 μM to 0.075 nM
Flag rule - IC50 less than 1 µM flags label 1; the remaining entries get label 0.

- COMPOUND: "CCC(CC)(c1cccc(Cl)c1)C(OC(=O)N[C@@H](CC(C)C)C(=O)N[C@@H](C[C@@H]1CCNC1=O)C(=O)C(=O)NC1CC1)c1cccc(Cl)c1 (stereo partly drawn)"
  ASSIGNED_CLASS: "label 0"

IN: For CCNC(=O)C(=O)[C@H](C[C@@H]1CCNC1=O)NC(=O)[C@H](CC1(C)CCC1)NC(=O)O[C@@H](c1ccccc1)C(F)(F)c1cccc(Cl)c1 , is the recorded IC50 below the cut-off of 1 µM?
OUT: label 0

IN: Lab note: confirm whether the reported IC50 for this compound is below 1 µM, equality not counting. compound: CC(C)C[C@H](NC(=O)OC(c1cccc(F)c1)C(C)(C)c1cccc(Cl)c1)C(=O)N[C@H](C=O)C[C@@H]1CCNC1=O (stereo partly drawn)
OUT: label 1
